Target Of Assay: T1, mucin domain-deleted Sudan GP (GPdMuc) (Sudan virus (SUDV), UniProt Q7T9D9 33-632)
T1 construct: also called Sudan GPdMuc; GP(S)dMuc
Assay: BLI competition on Sudan GPdMuc (lower table); competitor mAb166
Experimental Readout: % inhibition of binding (%)
Kindly answer with a numeric value in %, unit omitted.

Solved cases (2 shown):
{"Binder": "antibody 365S (antibody, V domains shown) VH: EVQLVESGGGLVQPGGSLRLSCAASGLTFSAYEMNWVRQAPGKGLEWVSHITTSGSAIYYADSVKGRFTISRDNAKNSLHLQMNRLRADDTAVYFCARDSTIVQCSGTSCHVSTYSYMDVWGKGTTVTVSS VL: EIVLTQSPATLSLSPGERATLSCRASQSVTTYLAWYQHKPGQAPRLLIYDASKRATGIPARFSGSGSGTDFTLTISSLEPEDFAVYHCQQRSSWPPITFGQGTRLEIK", "% inhibition of binding (%)": 84.2}
{"Binder": "antibody 335S (antibody, V domains shown) VH: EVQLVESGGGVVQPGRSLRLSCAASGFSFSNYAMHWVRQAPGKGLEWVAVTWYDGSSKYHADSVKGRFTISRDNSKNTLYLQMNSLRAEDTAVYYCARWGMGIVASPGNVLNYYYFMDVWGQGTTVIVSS VL: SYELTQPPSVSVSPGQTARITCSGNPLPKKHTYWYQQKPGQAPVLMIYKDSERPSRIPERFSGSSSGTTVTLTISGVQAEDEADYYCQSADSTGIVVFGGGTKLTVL", "% inhibition of binding (%)": 80}

Request: Can you look up the measured % inhibition of binding of antibody 102S (antibody, V domains shown) VH: EVQLVESGGGLVQPGGSLRLSCSASGFTFHSYDMNWARQAPGKGLEWVSEISSSGQSKNYADSVRGRFTISRDNAKNSLYLQINSLRSEDTAVYYCARVGFVAKFGSDFSITHGTYYLDYWGQGTLVTVSS VL: QLVLTQSPATLSLSPGERATLSCRASQSVSNYLAWYQQKPGQAPRLLIYDASNRAPGVPARFSGSGSGTDFSLTISSLEPEDFAVYYCLQRSNWPPWTFGQGTKVEIK for me?
Response: 78.2

The origin of these recorded values is patent US20260209316A1.
